TESTED_ON: Phosphatidylinositol 4,5-bisphosphate 3-kinase catalytic subunit alpha isoform (Homo sapiens, UniProt P42336)
Sequence (P42336 whole entry, canonical isoform): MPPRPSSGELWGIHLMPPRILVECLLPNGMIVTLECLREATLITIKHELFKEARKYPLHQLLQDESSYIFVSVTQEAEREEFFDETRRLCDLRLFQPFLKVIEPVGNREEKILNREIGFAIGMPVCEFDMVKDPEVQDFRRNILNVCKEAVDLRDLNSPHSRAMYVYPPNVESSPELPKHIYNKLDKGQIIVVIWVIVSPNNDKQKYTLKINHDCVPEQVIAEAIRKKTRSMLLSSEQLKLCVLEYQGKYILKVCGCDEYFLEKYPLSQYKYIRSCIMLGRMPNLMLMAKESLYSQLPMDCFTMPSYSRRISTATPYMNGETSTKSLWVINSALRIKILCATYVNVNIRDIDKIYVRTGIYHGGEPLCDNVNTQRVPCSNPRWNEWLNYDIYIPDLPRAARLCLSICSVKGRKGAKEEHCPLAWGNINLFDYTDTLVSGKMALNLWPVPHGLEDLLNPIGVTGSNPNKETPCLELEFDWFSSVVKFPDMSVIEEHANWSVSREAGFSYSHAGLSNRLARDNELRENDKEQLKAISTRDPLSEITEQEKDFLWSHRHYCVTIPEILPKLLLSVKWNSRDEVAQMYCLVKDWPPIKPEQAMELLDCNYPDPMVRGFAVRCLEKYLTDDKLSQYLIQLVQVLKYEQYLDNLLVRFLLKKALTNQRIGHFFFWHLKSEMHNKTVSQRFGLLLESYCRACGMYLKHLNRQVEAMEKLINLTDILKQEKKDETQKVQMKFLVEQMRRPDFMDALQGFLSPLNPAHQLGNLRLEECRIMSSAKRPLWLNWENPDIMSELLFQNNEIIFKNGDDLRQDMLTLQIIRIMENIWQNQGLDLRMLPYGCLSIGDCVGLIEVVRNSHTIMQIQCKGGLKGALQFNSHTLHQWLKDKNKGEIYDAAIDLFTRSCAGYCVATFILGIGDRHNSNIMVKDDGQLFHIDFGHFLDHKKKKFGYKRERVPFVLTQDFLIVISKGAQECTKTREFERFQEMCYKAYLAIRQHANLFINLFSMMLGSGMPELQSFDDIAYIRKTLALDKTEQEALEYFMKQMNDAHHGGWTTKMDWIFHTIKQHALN
ASSAY_REMARKS: Inhibition of human PI3Kalpha using PI(4,5)P2 as substrate after 20 mins by alphascreen assay in presence of 20 uM ATP
METRIC_NAME: Ki (nM)
Give bare numbers, in nM.

Please state, for each entry, its recorded Ki.
1. Nc1nc2ccc(-c3cnc(Cl)c(NS(=O)(=O)c4ccc(F)cc4)c3)cc2o1
2. O=S(=O)(Nc1cc(-c2ccc3nccn3n2)cnc1Cl)c1ccc(F)cc1
3. O=S(=O)(Nc1cc(-c2ccc3ncoc3c2)cnc1Cl)c1ccc(F)cc1

-- reply
1: 7.2; 2: 6.1; 3: 26

Lab note: each compound below needs its Ki filled in.
1. Nc1cn2cc(-c3cnc(Cl)c(NS(=O)(=O)c4ccc(F)cc4)c3)ccc2n1
2. O=S(=O)(Nc1cc(-c2ccc3nccn3c2)cnc1Cl)c1ccc(F)cc1
3. Nc1nc2ccc(-c3cnc(Cl)c(NS(=O)(=O)c4ccc(F)cc4)c3)cc2[nH]1
4. O=S(=O)(Nc1cc(-c2ccc3sncc3c2)cnc1Cl)c1ccc(F)cc1
5. CC(=O)Nc1nc2ccc(-c3cnc(Cl)c(NS(=O)(=O)c4ccc(F)cc4)c3)cc2[nH]1

-- reply
[2.8, 23, 119, 76, 3.3]

# batch size: 2; output Ki per entry
1. CC(=O)Nc1cn2nc(-c3cnc(Cl)c(NS(=O)(=O)c4ccc(F)cc4)c3)ccc2n1
2. CC(=O)Nc1nc2ccc(-c3cnc(Cl)c(NS(=O)(=O)c4ccc(F)cc4)c3)cc2o1

-- reply
[1.4, 47]

----------
ASSAY_REMARKS: Clearance in cynomolgus monkey liver microsomes
Format: ADME, Macaca fascicularis, Microsome
METRIC_NAME: microsomal CLint

-- ask Name the recorded microsomal CLint of the compound listed here: CC(=O)Nc1nc2ccc(-c3cnc(Cl)c(NS(=O)(=O)c4ccc(F)cc4)c3)cc2s1
-- reply < 26 µL/min/mg

----------
ASSAY_REMARKS: Volume of distribution in iv dosed Sprague-Dawley rat
Type: ADME, organism-based
EXPERIMENTAL_CONTEXT: in vivo
METRIC_NAME: Vd (L/kg)
Give bare numbers, in L/kg.

-- ask For the compound CC(=O)Nc1cn2nc(-c3cnc(Cl)c(NS(=O)(=O)c4ccc(F)cc4)c3)ccc2n1 , report Vd.
-- reply 0.27

----------
TESTED_ON: Phosphatidylinositol 4,5-bisphosphate 3-kinase catalytic subunit alpha isoform (Homo sapiens, UniProt P42336)
ASSAY_REMARKS: Inhibition of human PI3Kalpha using PI(4,5)P2 as substrate after 20 mins by alphascreen assay in presence of 20 uM ATP
METRIC_NAME: pKi
One number for each entry, as −log10 of the molar value.

Answered examples (2):
| SMILES_DATA | pKi |
| --- | --- |
| Nc1cn2nc(-c3cnc(Cl)c(NS(=O)(=O)c4ccc(F)cc4)c3)ccc2n1 | 7.96 |
| CC(=O)Nc1cn2cc(-c3cnc(Cl)c(NS(=O)(=O)c4ccc(F)cc4)c3)ccc2n1 | 8.92 |

Hello, I would appreciate it if you could give pKi for each entry below.
1. O=S(=O)(Nc1cc(-c2ccc3nncn3c2)cnc1Cl)c1ccc(F)cc1
2. O=S(=O)(Nc1cc(-c2ccc3nc[nH]c3c2)cnc1Cl)c1ccc(F)cc1

-- reply
[7.29, 7.17]
